tested on: EKVX; experiment: NCI tumour cell line growth inhibition, 48 h
The source made the active and inactive calls. No stated cut-off is given here; in the data, active = GI50 up to about 1.1 µM and inactive = higher.
measured_property: GI50

# get_value(readout= GI50, system= EKVX) for COc1ccc(N2C(=O)C3c4[nH]c5ccc(OCc6ccccc6)cc5c4C4CCC(C(C)C)CC4C3C2=O)cc1 (stereo unspecified) 11 µM (inactive)

Now consider `Cc1ccc2c(c1)Sc1ccc(/N=N/N(C)C)cc1N2C` and answer again. > 100 µM (inactive)

Please give the result for `NC(=O)C(=CNC(N)=S)C(N)=O` too. > 100 µM (inactive)

Same again, this time with COc1ccccc1C(=O)NCC1CCCN2CCCCC12 (stereo unspecified) > 100 µM (inactive)

Further, for `COCCO` ? > 100 µM (inactive)

Now the same for `COc1ccc(/C=C2\N=C3NC(=O)C(N4CCCCC4)=C(N)N3C2=O)cc1` > 100 µM (inactive)

* * *

tested on: SK-OV-3; assay: NCI tumour cell line growth inhibition, 48 h
Active and inactive are the calls of the source. No stated cut-off is given here; in the data, active = GI50 up to about 1.1 µM and inactive = higher.
GI50: recorded values

>  <compound>
CCCS(=O)(=O)O

>  <endpoint_result>
> 100 µM (inactive)

$$$$
>  <compound>
O=C(Cn1c(-c2ccccc2)cc2ccccc21)N1CCCC1

>  <endpoint_result>
> 100 µM (inactive)

$$$$
>  <compound>
CC(=O)OCC1OC(n2c(-c3ccccc3)c(C(C)=O)c(-c3ccc(Cl)cc3)c(C#N)c2=S)C(OC(C)=O)C(OC(C)=O)C1OC(C)=O (centres undefined)

>  <endpoint_result>
> 100 µM (inactive)

$$$$
>  <compound>
Cc1cc2c(ccc[n+]2[O-])[n+]([O-])c1

>  <endpoint_result>
> 100 µM (inactive)

$$$$
>  <compound>
CS/C(=N\C(=S)Nc1ccccc1)Nc1ccccc1

>  <endpoint_result>
27 µM (inactive)

$$$$
>  <compound>
O=[N+]([O-])c1ccc(/C=C(/c2ccc([N+](=O)[O-])o2)S(=O)(=O)c2ccccc2)cc1

>  <endpoint_result>
> 100 µM (inactive)

$$$$
>  <compound>
CC(C(=O)n1c2ccccc2c2ccccc21)N(c1ccccc1)c1ccccc1 (centres undefined)

>  <endpoint_result>
18.7 µM (inactive)

$$$$
>  <compound>
CC(Oc1cc2oc(=O)cc(-c3ccccc3)c2cc1Cl)C(=O)O (centres undefined)

>  <endpoint_result>
> 100 µM (inactive)

$$$$
>  <compound>
CC1[C@@H]2CC=C3C4CCC5Cc6nc7c(nc6C[C@@]5(C)C4CC(=O)[C@]32CO[C@@]1(O)C(O)CC(C)(C)O)CC1CCC2C3=C[C@H]4O[C@@]5(O[C@@](C)(CO)C[C@@H]5O)C(C)[C@@]4(O)[C@]3(C)[C@@H](O)CC2[C@]1(C)C7 (some centres undefined)

>  <endpoint_result>
0.00184 µM (active)

$$$$
>  <compound>
CCOC(=O)c1cc2cc(Cc3ccc4[nH]c(C(=O)OCC)cc4c3)ccc2[nH]1

>  <endpoint_result>
13.6 µM (inactive)

$$$$

Which measured GI50 value corresponds to Cc1cn(C2CC(N/C(=N/C#N)NCC3OC(n4cnc5c(N)ncnc54)CC3O)C(CO)O2)c(=O)[nH]c1=O (centres undefined) ? > 100 µM (inactive)

Query `COc1cc(CCC(=O)NS(=O)(=O)c2ccccc2)cc(OC)c1OC` next > 100 µM (inactive)

Another compound to check: CCOC(=O)C(C(=S)SC)c1nn2c(=O)cc(C)nc2s1 (centres undefined) 22.9 µM (inactive)
